measured-on: α-glucosidase (yeast origin) (Saccharomyces cerevisiae)
Sequence (P53341 whole entry): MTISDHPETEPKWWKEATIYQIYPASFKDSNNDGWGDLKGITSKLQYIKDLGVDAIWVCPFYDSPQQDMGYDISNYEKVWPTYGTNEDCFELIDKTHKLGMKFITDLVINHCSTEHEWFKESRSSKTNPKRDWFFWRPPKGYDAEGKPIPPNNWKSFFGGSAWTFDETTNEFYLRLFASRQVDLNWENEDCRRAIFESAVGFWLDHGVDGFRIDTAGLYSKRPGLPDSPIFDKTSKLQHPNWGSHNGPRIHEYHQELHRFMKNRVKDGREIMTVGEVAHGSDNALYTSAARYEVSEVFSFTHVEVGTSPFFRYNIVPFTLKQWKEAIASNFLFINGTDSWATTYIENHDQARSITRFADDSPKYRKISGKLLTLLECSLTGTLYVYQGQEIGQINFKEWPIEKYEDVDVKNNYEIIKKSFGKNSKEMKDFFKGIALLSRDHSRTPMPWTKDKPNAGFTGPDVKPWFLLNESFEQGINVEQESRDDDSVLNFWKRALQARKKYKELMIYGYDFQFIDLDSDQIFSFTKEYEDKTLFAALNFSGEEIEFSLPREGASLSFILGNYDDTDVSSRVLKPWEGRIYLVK
pIC50: −log10 of the molar value.

>  <smiles-representation>
O=C(Cc1ccccc1Br)c1ccccc1C(=O)NCCc1ccccc1

>  <measured-on>
α-glucosidase (yeast origin) (Saccharomyces cerevisiae)

>  <pIC50>
5.16

$$$$

---

measured-on: UniProt Q2KIM0
Sequence (Q2KIM0 23-468): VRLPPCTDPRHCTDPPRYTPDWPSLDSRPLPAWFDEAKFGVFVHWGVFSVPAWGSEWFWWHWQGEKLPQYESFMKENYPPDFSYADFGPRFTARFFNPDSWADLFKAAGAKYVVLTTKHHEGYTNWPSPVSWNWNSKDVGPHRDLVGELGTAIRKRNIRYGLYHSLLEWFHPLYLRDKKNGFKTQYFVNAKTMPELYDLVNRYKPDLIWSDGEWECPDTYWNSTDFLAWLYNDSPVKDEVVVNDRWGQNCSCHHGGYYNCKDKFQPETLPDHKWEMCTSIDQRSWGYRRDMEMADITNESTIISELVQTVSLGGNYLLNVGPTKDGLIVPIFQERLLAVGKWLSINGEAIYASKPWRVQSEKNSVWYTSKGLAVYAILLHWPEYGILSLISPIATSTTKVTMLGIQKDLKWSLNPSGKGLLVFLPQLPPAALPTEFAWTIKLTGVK

>  <compound>
O=C(Cc1ccccc1Br)c1ccccc1C(=O)NCCc1ccccc1 [3o]

>  <IC50>
> 50 µM

$$$$
